Target: Cytochrome P450 2C19 (Homo sapiens)
Test: qHTS Assay for Inhibitors and Substrates of Cytochrome P450 2C19 (AID 899); further: nearly all actives have a fitted effect of over 60% in size
Conditions: recombinant CYP2C19, luciferin-H EGE luminescence; series mostly up to 57.1 µM
Description: NIH Molecular Libraries Screening Centers Network [MLSCN] NIH Chemical Genomics Center [NCGC] The P450 gene superfamily is involved in the metabolism and clearance of xenobiotics. […] The luciferin is then measured by luminescence after the addition of a luciferase detection reagent. […] Inhibitors and some substrates limit the production of luciferin, and decrease measured luminescence. […]
Results filed as inconclusive are left out. Calls of active or inactive are those of the source. The call rests on the fitted dose curve; in most records, active means well fitted inhibition curve with a large enough effect; inconclusive means small, poorly fitted or top-dose-only effect; inactive means no such curve, though single readings can be large or run the other way.
Outcomes: TRUE (active), FALSE (inactive)

Smiles Record	Class
C[N+]1(C)CCC[C@@H](OC(=O)C(O)(c2ccccc2)c2ccccc2)C1	FALSE
COc1ncc2nc(C)c(=O)n(CCC#N)c2n1	FALSE
CC[C@@]12CCCN3CCc4c(n(c5ccccc45)C(=O)C1)[C@H]32	TRUE
COc1ccccc1-c1ccc2ncnc(Nc3ccccc3)c2c1	TRUE
CN(C)c1ccc(-c2cncnc2NCc2cccnc2)cc1	TRUE
O=c1c(-c2cc(F)cc(F)c2)nc2cncnc2n1Cc1ccccc1Cl	TRUE
CN(C)c1ccc(-c2cncnc2Nc2ccccc2)cc1	TRUE
FC(F)(F)c1ccccc1-c1ccc2ncnc(NCc3cccs3)c2c1	TRUE
Clc1ccccc1-c1ccc2ncnc(NC3CCNCC3)c2c1	TRUE
COc1cccc(-c2nccc(N(C)Cc3ccco3)n2)c1	TRUE
COc1ccc2[nH]cc(CCNc3ccnc(-c4c(C)noc4C)n3)c2c1	TRUE
